molecular target: full-length WT STING (Homo sapiens, UniProt Q86WV6, H232R); construct: AviTag (after gg linker) (C); HRV3C cleavage site (after gs linker) (C); HIS8 (C); made in house; host or cells: Trichoplusia ni (Hi-Five) insect cells infected with baculovirus (virus generated and amplified in Sf21 cells); used as a washed membrane preparation; assay: 3H-cGAMP filtration binding assay (WT STING); conditions: competition with tritiated cGAMP, WT STING membrane
Sequence (Q86WV6 with tags, fused parts or gaps H232R): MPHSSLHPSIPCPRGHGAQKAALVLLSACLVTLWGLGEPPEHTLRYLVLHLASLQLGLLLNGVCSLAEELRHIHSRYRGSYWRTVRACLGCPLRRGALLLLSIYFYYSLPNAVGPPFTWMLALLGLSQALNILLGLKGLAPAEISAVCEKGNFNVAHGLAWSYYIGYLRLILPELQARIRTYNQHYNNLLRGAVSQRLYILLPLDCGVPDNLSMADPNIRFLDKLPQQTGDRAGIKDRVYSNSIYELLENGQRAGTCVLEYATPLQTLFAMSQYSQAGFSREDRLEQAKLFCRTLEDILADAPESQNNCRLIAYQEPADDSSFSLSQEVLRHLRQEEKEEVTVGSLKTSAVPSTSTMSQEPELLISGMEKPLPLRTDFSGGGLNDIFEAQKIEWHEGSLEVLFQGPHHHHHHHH
reportedEndpoint: EC50 (nM)

See these solved cases before continuing.
compoundSmiles | reportedEndpoint | resultValue
COc1cc2sc(C(=O)CCC(=O)O)cc2c(F)c1OCCCOc1c(OC)cc2sc(C(=O)CCC(=O)O)cc2c1F | EC50 | 2
COc1cc2cc(C(=O)CCC(=O)O)sc2cc1OCCCOc1cc2sc(C(=O)CCC(=O)O)cc2cc1OC | EC50 | 270
COc1cc2sc(C(=O)C[C@H](C)C(=O)O)cc2cc1OCCCOc1c(OC)cc2sc(C(=O)C[C@H](C)C(=O)O)cc2c1F | EC50 | 2

(P) COc1cc2sc(CC[C@H](C)C(=O)O)cc2cc1CCCc1cc2cc(C(=O)CCC(=O)O)sc2cc1OC
(Q) COc1cc2sc(C(=O)C[C@H](C)C(=O)O)cc2cc1OCCCOc1cc2cc(C(=O)C[C@H](C)C(=O)O)sc2cc1OC
Please compare: P and Q . Report which one has the smaller EC50 value. Mark your selection by writing its label.
Q
(Q: 4 nM, P: 9480 nM)

(a) COc1cc2sc(C(=O)CCC(=O)O)cc2nc1CCOc1nc2cc(C(=O)CCC(=O)O)sc2cc1OC
(b) COc1cc2sc(C(=O)C[C@H](C)C(=O)O)cc2c(F)c1CCCOc1c(OC)cc2sc(C(=O)C[C@H](C)C(=O)O)cc2c1F
Please compare: a and b . Report which one has the smaller EC50 value. Mark your selection by writing its label.
b

====

biological target: full-length HAQ STING (Homo sapiens, UniProt Q86WV6, G230A/H232R/R293Q/R71H); construct: AviTag (after GG linker) (C); HRV3C cleavage site (after GS linker) (C); HIS8 (C); made in house; host or cells: Trichoplusia ni (Hi-Five) insect cells infected with baculovirus (virus generated and amplified in Sf21 cells); used as a washed membrane preparation; experiment: 3H-cGAMP filtration binding assay (HAQ STING); settings: competition with tritiated cGAMP, HAQ STING membrane
Sequence (Q86WV6 with tags, fused parts or gaps R71H/G230A/H232R/R293Q): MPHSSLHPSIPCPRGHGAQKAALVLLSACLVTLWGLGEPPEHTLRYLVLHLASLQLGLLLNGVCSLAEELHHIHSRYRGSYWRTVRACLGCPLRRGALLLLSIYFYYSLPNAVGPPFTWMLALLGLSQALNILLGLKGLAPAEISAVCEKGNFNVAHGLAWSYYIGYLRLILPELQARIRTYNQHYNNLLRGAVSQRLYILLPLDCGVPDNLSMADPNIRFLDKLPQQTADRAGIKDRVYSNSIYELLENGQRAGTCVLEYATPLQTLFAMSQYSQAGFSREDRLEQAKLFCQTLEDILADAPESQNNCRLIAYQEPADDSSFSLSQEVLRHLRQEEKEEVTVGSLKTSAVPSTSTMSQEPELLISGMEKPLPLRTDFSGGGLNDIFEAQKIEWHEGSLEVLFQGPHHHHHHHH
reportedEndpoint: EC50 (nM)

compoundSmiles | system | EC50 (nM)
COc1cc2sc(C(=O)C[C@H](C)C(=O)O)cc2cc1OCCCOc1nc2cc(C(=O)C[C@H](C)C(=O)O)sc2cc1OC | full-length HAQ STING (Homo sapiens, UniProt Q86WV6, G230A/H232R/R293Q/R71H) | 1
COc1cc2sc(C(=O)C[C@H](C)C(=O)O)cc2cc1OCCCOc1c(O)cc2sc(C(=O)C[C@H](C)C(=O)O)cc2c1Cl | full-length HAQ STING (Homo sapiens, UniProt Q86WV6, G230A/H232R/R293Q/R71H) | 1
COc1cc2cc(C(=O)C[C@H](C)C(=O)O)sc2cc1OCCOc1ccc2sc(C(=O)CCC(=O)O)cc2c1 | full-length HAQ STING (Homo sapiens, UniProt Q86WV6, G230A/H232R/R293Q/R71H) | 146
COc1cc2sc(C(=O)CCC(=O)O)cc2cc1OCCOc1c(OC)cc2sc(C(=O)CCC(=O)O)cc2c1F | full-length HAQ STING (Homo sapiens, UniProt Q86WV6, G230A/H232R/R293Q/R71H) | 4

(I) COc1cc2sc(C(=O)C[C@H](C)C(=O)O)cc2cc1CCOc1cc2cc(C(=O)C[C@H](C)C(=O)O)sc2cc1OC
(II) COc1cc2sc(C(=O)C[C@H](C)C(=O)O)cc2cc1OCCCc1c(OC)cc2sc(C(=O)C[C@H](C)C(=O)O)cc2c1F
(III) COc1cc2sc(C(=O)C[C@H](C)C(=O)O)cc2cc1CCCOc1c(OC)cc2sc(CC[C@H](C)C(=O)O)cc2c1F
Please give the order of these molecules when sorted by EC50, largest value leading. Sort and list the labels as requested.
III, I, II
(III: 277 nM, I: 6 nM, II: 1 nM)

====

target: full-length WT STING (Homo sapiens, UniProt Q86WV6, H232R); construct: AviTag (after gg linker) (C); HRV3C cleavage site (after gs linker) (C); HIS8 (C); made in house; host or cells: Trichoplusia ni (Hi-Five) insect cells infected with baculovirus (virus generated and amplified in Sf21 cells); used as a washed membrane preparation; assay: 3H-cGAMP filtration binding assay (WT STING); conditions: competition with tritiated cGAMP, WT STING membrane
reportedEndpoint: EC50 (nM)

(A) COc1cc2sc(C(=O)C[C@H](C)C(=O)O)cc2cc1OCCCOc1c(OC)cc2sc(C(=O)[C@@H]3C[C@H]3C(=O)O)cc2c1F
(B) COc1cc2sc(C(=O)CCC(=O)O)cc2cc1OCCCc1c(OC)cc2sc(C(=O)C[C@H](C)C(=O)O)cc2c1F
(C) COc1cc2sc(C(=O)C[C@H](C)C(=O)O)cc2cc1CCCNc1cc2cc(C(=O)C[C@H](C)C(=O)O)sc2cc1OC
Hey, quick one: sort these by EC50, low to high? Sort and list the labels as requested.
B, A, C

====

target: full-length HAQ STING (Homo sapiens, UniProt Q86WV6, G230A/H232R/R293Q/R71H); construct: AviTag (after GG linker) (C); HRV3C cleavage site (after GS linker) (C); HIS8 (C); made in house; host or cells: Trichoplusia ni (Hi-Five) insect cells infected with baculovirus (virus generated and amplified in Sf21 cells); used as a washed membrane preparation; assay: 3H-cGAMP filtration binding assay (HAQ STING); settings: competition with tritiated cGAMP, HAQ STING membrane
reportedEndpoint: EC50 (nM)

See these solved cases before continuing.
compound | EC50 (nM)
COc1cc2sc(C(=O)CCC(=O)O)cc2cc1CCCc1nc2cc(C(=O)CCC(=O)O)sc2cc1OC [Example 29] | 8
COc1cc2sc(CC[C@H](C)C(=O)O)cc2c(F)c1OCCCOc1c(OC)cc2sc(CC[C@H](C)C(=O)O)cc2c1F [Example 116] | 623

(a) COc1cc2sc(C(=O)CCC(=O)O)cc2cc1CCCNc1cc2cc(C(=O)C[C@H](C)C(=O)O)sc2cc1OC [Example 177]
(b) COC(=O)[C@@H](C)CC(=O)c1cc2cc(OCCCOc3cc4sc(C(=O)C[C@H](C)C(=O)OC)cc4cc3OC)c(OC)cc2s1 [Example 48]
Please compare: a and b . Report which one has the smaller EC50 value. Mark your selection by writing its label.
a
(a: 68 nM, b: 12800 nM)

====

target: full-length WT STING (Homo sapiens, UniProt Q86WV6, H232R); construct: AviTag (after gg linker) (C); HRV3C cleavage site (after gs linker) (C); HIS8 (C); made in house; host or cells: Trichoplusia ni (Hi-Five) insect cells infected with baculovirus (virus generated and amplified in Sf21 cells); used as a washed membrane preparation; assay: 3H-cGAMP filtration binding assay (WT STING); settings: competition with tritiated cGAMP, WT STING membrane
reportedEndpoint: EC50 (nM)

See these solved cases before continuing.
compound | system | EC50 [nM]
COc1cc2sc(C(=O)C[C@H](C)C(=O)O)cc2cc1OCCOc1cc2cc(C(=O)C[C@H](C)C(=O)O)sc2cc1OC [Example 76] | full-length WT STING (Homo sapiens, UniProt Q86WV6, H232R) | 56
COc1cc2cc(C(=O)C[C@H](C)C(=O)O)sc2cc1OCCCc1nc2c(o1)c(OC)cc1sc(C(=O)C[C@H](C)C(=O)O)cc12 [Example 40] | full-length WT STING (Homo sapiens, UniProt Q86WV6, H232R) | 1360
COc1cc2sc(C(=O)C[C@@H](C)C(=O)O)cc2cc1CCCOc1c(OC)cc2sc(C(=O)C[C@H](C)C(=O)O)cc2c1F [Example 91] | full-length WT STING (Homo sapiens, UniProt Q86WV6, H232R) | 30
COc1cc2sc(C(=O)C[C@H](C)C(=O)O)cc2cc1OCCOc1ccc2sc(C(=O)CCC(=O)O)cc2c1 [Example 54] | full-length WT STING (Homo sapiens, UniProt Q86WV6, H232R) | 3080
COc1cc2sc(C(=O)C[C@H](C)C(=O)O)cc2c(F)c1OCC(C)COc1c(OC)cc2sc(C(=O)C[C@H](C)C(=O)O)cc2c1F [Example 142] | full-length WT STING (Homo sapiens, UniProt Q86WV6, H232R) | 1
COc1cc2sc(C(=O)C[C@H](C)C(=O)O)cc2cc1OCCCOc1c(OC)cc2sc(CC[C@H](C)C(=O)O)cc2c1Cl [Example 150] | full-length WT STING (Homo sapiens, UniProt Q86WV6, H232R) | 1040
COc1cc2sc(C(=O)CCC(=O)O)nc2cc1CCCc1cc2nc(C(=O)CCC(=O)O)sc2cc1OC [Example 27] | full-length WT STING (Homo sapiens, UniProt Q86WV6, H232R) | 362
COc1cc2sc(C(=O)C[C@H](C)C(=O)O)cc2c(F)c1OCC1(COc2c(OC)cc3sc(C(=O)C[C@H](C)C(=O)O)cc3c2F)CC1 [Example 144] | full-length WT STING (Homo sapiens, UniProt Q86WV6, H232R) | 93

(1) COc1cc2sc(C(=O)CCC(=O)O)cc2nc1CCCOc1c(OC)cc2sc(C(=O)CCC(=O)O)cc2c1F [Example 173]
(2) COc1cc2sc(CCC(C)(C)C(=O)O)cc2c(F)c1OCCCOc1c(OC)cc2sc(C(=O)[C@@H]3CC[C@H]3C(=O)O)cc2c1F (relative stereo) [Example 141]
(3) COc1cc(CCCc2cc3sc(C(=O)CCC(=O)O)cc3cc2OC)c2cc(C(=O)CCC(=O)O)sc2c1 [Example 26]
(4) COc1cc2sc(C(=O)C[C@H](C)C(=O)O)cc2nc1OCCCOc1c(OC)cc2sc(C(=O)CCC(=O)O)cc2c1F [Example 21]
Please give the order of these compounds when sorted by EC50, largest value leading. Sort and list the labels as requested.
2, 3, 4, 1

Reference source for all entries: patent US10793557B2
